# tested.system: 3-oxo-5-alpha-steroid 4-dehydrogenase 2 (Homo sapiens)
# Sequence (P31213 whole entry): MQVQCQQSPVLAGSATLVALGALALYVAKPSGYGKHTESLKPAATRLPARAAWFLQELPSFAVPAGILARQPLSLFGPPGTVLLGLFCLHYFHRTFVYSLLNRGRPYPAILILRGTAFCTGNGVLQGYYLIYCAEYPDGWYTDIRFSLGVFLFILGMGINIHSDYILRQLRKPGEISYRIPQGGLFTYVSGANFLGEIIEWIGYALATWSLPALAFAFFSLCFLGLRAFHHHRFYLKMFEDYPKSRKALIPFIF
# method.notes: Inhibition of recombinant human Steroid 5-alpha-reductase type 2
pIC50: −log10 of the molar value.
measure: pIC50

[[record]]
molecule = "C[C@]12C=CC(=O)NC1CCC1C2CC[C@]2(C)C(C(=O)Nc3cccc(F)c3)CCC12 (stereo not given in full)"
tested_system = "3-oxo-5-alpha-steroid 4-dehydrogenase 2 (Homo sapiens)"
measure = "pIC50"
meas_value = 9.70

[[record]]
molecule = "C[C@]12C=CC(=O)NC1CCC1C2CC[C@]2(C)C(C(=O)Nc3ccc(F)cc3)CCC12 (stereo not given in full)"
tested_system = "3-oxo-5-alpha-steroid 4-dehydrogenase 2 (Homo sapiens)"
measure = "pIC50"
meas_value = 9.70

[[record]]
molecule = "C[C@]12C=CC(=O)NC1CCC1C2CC[C@]2(C)C(C(=O)N3CCCCc4ccccc43)CCC12 (stereo not given in full)"
tested_system = "3-oxo-5-alpha-steroid 4-dehydrogenase 2 (Homo sapiens)"
measure = "pIC50"
meas_value = 7.99

[[record]]
molecule = "C[C@]12C=CC(=O)NC1CCC1C2CC[C@]2(C)C(C(=O)Nc3ccc(C(=O)c4ccccc4)cc3)CCC12 (stereo not given in full)"
tested_system = "3-oxo-5-alpha-steroid 4-dehydrogenase 2 (Homo sapiens)"
measure = "pIC50"
meas_value = 8.80

[[record]]
molecule = "C[C@]12C=CC(=O)NC1CCC1C2CC[C@]2(C)C(C(=O)Nc3cccc(Br)c3)CCC12 (stereo not given in full)"
tested_system = "3-oxo-5-alpha-steroid 4-dehydrogenase 2 (Homo sapiens)"
measure = "pIC50"
meas_value = 9.70


a = C[C@]12C=CC(=O)NC1CCC1C2CC[C@]2(C)C(C(=O)Nc3ccc(-c4ccccc4)cc3)CCC12 (stereo not given in full)
b = C[C@]12C=CC(=O)NC1CCC1C2CC[C@]2(C)C(C(=O)Nc3ccc(C(F)(F)F)cc3)CCC12 (stereo not given in full)
Incoming: Form field 'greater pIC50' accepts a or b ; which applies? Write down the label of the entry you select.
Outgoing: b
(b: 9.40, a: 8.66)
